molecular target: TbrCatL (Trypanosoma brucei rhodesiense); construct: Conor Caffrey (University of California San Diego); assay: TbrCatL enzymatic inhibition assay (cleavage of fluorogenic substrate Z-FR-AMC); assay type: biochemical; conditions: 10’ (pre-incubation time); sheet "Screening results";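 also: at 5 µM compound concentration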
Sequence (Q95PM0 entry or part of it): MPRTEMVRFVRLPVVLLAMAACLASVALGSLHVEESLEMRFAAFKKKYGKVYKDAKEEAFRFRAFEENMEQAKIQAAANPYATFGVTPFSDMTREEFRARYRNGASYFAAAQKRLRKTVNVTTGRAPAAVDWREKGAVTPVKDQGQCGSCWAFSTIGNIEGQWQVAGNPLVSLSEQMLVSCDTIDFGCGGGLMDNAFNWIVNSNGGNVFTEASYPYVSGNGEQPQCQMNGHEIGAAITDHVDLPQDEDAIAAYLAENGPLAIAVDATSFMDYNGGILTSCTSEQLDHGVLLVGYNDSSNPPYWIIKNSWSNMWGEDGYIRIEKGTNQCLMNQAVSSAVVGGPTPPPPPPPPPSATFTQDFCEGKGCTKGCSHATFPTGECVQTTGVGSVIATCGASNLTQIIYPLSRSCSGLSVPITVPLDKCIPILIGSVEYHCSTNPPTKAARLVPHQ
Each entry below lists one item and its recorded TbrCatL 10’ Inhibition value.

[
  {
    "MOLECULE": "CCN(CC)C(=O)N1CCN(C)CC1 [MMV002816]",
    "TbrCatL 10’ Inhibition / %": 0.1
  },
  {
    "MOLECULE": "O=C(Nc1ccc(N2CCNCC2)nc1)c1oc(-c2ccccc2)nc1C(F)(F)F [MMV024937]",
    "TbrCatL 10’ Inhibition / %": 23
  },
  {
    "MOLECULE": "Cc1cc(NC(=O)c2ccc(S(=O)(=O)N(Cc3ccccc3)C(C)C)cc2)no1 [MMV007133]",
    "TbrCatL 10’ Inhibition / %": -11
  },
  {
    "MOLECULE": "CCCc1ccc(S(=O)(=O)Nc2ccc(CN3CCN(CC4CC4)CC3)cc2)cc1 [MMV688125]",
    "TbrCatL 10’ Inhibition / %": -4.7
  },
  {
    "MOLECULE": "CC(C)=CCC/C(C)=C\\CNCCNC1C2CC3CC(C2)CC1C3 (centres unmarked) [MMV687273]",
    "TbrCatL 10’ Inhibition / %": -4.3
  }
]
